TESTED_TARGET: GST-hnRNPA2B1 (Homo sapiens, UniProt P22626 1-353)
Sequence (P22626 whole entry): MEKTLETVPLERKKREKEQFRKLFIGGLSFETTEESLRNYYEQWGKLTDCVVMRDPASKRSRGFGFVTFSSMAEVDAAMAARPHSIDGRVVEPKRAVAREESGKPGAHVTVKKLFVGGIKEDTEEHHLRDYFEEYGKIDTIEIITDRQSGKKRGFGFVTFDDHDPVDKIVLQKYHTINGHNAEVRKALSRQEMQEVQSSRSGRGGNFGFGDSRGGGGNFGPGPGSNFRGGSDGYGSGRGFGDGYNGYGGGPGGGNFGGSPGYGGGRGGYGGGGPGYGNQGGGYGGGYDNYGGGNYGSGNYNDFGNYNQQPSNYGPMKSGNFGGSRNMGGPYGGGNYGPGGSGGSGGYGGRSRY
EXPERIMENTAL_DETAILS: AlphaScreen saturation binding; AlphaScreen: 25 mM HEPES pH 7.4, 100 mM NaCl, 0.01% BSA, RT 1 h; REMSA: 20 mM HEPES pH 7.5, 50 mM KCl, 0.5 ug BSA, 0.25% glycerol, RT; pull-down: 25 mM HEPES pH 7.5, 100 mM NaCl, 4 C
STATED_CONDITIONS: protein: recombinant; tags: N-terminal GST (pGEX-6P-1); label: 5'-biotin-TEG; single strand; weak predicted secondary structure (-0.5 kcal/mol)
QUANTITY: pKd
Units for pKd: none; it is -log10 of a concentration expressed in mol/L.

*Q* May I ask what pKd has been recorded for GGGGAGGUUAGGGAGGAGGGGGGUAGGCGCC (ssRNA) [EXOmotif RNA (biotin)] ?
*A* 8.47
